# TESTED_TARGET: T1, rhIL-17A (human, UniProt Q16552 24-155)
# T1 construct: Homodimer; expressed from adenoviral vectors in HEK 293 cells; also called recombinant human IL-17A; adenovirus-derived rhIL-17A
# T1 sequence: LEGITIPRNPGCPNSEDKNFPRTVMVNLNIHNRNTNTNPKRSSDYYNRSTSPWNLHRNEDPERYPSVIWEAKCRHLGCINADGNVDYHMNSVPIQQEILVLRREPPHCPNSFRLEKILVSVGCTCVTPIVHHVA
# MEASUREMENT_DESCRIPTION: sandwich ELISA, IL-17A captured on rat 12E6, antibody titrated
OUTCOME_MEASURE: EC50 (nM)
Output spec: scalar in nM, unitless text.

BINDER: hu 16C10 VH M96L (antibody, human IgG1, V domains shown, Variant of hu 16C10 wt; Human IgG1/kappa) VH: QVQLQESGPGLVKPSETLSLTCTVSGFSLPSHSVSWIRQPPGKGLEWIGIIWNNGGTDYNSAFKSRVTISVDTSKNQFSLKLSSVTAADTAVYYCARNLYITDYYYENYFMDAWGQGTLVTVSS VL: DIVMTQSPLSLPVTPGEPASISCKSSQSLLFSENQKNYLAWYLQKPGQSPQLLIYWTSTRQSGVPDRFSGSGSGTDFTLKISRVEAEDVGVYYCQQSYYTPYTFGQGTKVEIKR
OUTCOME_MEASURE: EC50
UNITS: nM
VALUE_OBSERVED: 0.066
//
BINDER: hu 16C10 VH N54Q/M96A/M100hF (antibody, human IgG1, kappa, V domains shown, Human IgG1/kappa; also called hu 16C10 VH 54Q/M96A/M100hF; hu16C10 (N54Q/M96A/M100hF)) VH: QVQLQESGPGLVKPSETLSLTCTVSGFSLPSHSVSWIRQPPGKGLEWIGIIWNQGGTDYNSAFKSRVTISVDTSKNQFSLKLSSVTAADTAVYYCARNAYITDYYYENYFFDAWGQGTLVTVSS VL: DIVMTQSPLSLPVTPGEPASISCKSSQSLLFSENQKNYLAWYLQKPGQSPQLLIYWTSTRQSGVPDRFSGSGSGTDFTLKISRVEAEDVGVYYCQQSYYTPYTFGQGTKVEIKR
OUTCOME_MEASURE: EC50
UNITS: nM
VALUE_OBSERVED: 0.08

--- query ---
Prompt line: EC50 lookup needed for hu 16C10 VH M100hL (antibody, human IgG1, V domains shown, Variant of hu 16C10 wt; Human IgG1/kappa) VH: QVQLQESGPGLVKPSETLSLTCTVSGFSLPSHSVSWIRQPPGKGLEWIGIIWNNGGTDYNSAFKSRVTISVDTSKNQFSLKLSSVTAADTAVYYCARNMYITDYYYENYFLDAWGQGTLVTVSS VL: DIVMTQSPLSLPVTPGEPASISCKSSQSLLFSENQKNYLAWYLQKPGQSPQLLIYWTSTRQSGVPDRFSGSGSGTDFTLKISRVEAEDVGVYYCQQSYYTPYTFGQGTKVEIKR , thanks.
Response line: 0.053
